Hey, just so you know, these numbers are from paper PMC12383012.

- experimental target: electric eel acetylcholinesterase (eeAChE) (Electrophorus electricus)
- Construct: purchased
- Sequence (O42275 24-633): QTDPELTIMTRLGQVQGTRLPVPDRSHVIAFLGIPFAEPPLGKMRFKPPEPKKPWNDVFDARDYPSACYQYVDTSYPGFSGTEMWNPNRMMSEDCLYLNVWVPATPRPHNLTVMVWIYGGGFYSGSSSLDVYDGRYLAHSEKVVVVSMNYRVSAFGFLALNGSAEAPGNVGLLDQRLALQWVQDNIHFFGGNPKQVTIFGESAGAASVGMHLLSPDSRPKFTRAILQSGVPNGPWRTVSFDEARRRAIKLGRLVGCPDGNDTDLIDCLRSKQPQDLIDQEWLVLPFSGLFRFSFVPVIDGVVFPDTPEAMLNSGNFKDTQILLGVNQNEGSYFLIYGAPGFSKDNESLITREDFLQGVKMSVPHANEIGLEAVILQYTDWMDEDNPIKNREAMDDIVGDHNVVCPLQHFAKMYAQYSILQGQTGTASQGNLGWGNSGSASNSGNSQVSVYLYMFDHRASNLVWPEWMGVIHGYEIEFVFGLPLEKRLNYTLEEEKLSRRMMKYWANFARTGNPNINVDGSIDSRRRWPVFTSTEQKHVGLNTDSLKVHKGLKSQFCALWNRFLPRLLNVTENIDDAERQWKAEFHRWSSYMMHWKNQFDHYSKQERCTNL
- protocol notes: Acetylcholinesterase inhibition (adapted Ellman's method)
- Type: biochemical
- condition details: read-out: AChE Inhib IC50
readout: log10 IC50 (log10 of the value in µM)
Friendly reminder: values = log10 of IC50, unit µM.

The following compounds have reported results that may help.
• CCN(C)C(=O)Oc1cccc(NC(=O)/C=C/C=C/c2ccc(O)c(O)c2)c1 = 0.70
• CCN(C)C(=O)Oc1cccc(CNC(=O)/C=C/c2ccc3c(c2)OCO3)c1 = 1.96
• CCN(C)C(=O)Oc1cccc(NC(=O)/C=C/C=C/c2ccc3c(c2)OCO3)c1 = 1.16

Ask: Could you share which log10 IC50 value was measured for "CCN(C)C(=O)Oc1cccc(NC(=O)/C=C/c2ccc3c(c2)OCO3)c1" ?
Reply: 1.70

Ask: Could you share which log10 IC50 value was measured for CCN(C)C(=O)Oc1cccc(NC(=O)C2(C)CCc3c(C)c(O)c(C)c(C)c3O2)c1 (stereo not shown) ?
Reply: 1.84

Ask: Could you share which log10 IC50 value was measured for "CCN(C)C(=O)Oc1cccc(NC(=O)/C=C/c2ccc(O)c(O)c2)c1" ?
Reply: 2.04

Ask: Could you share which log10 IC50 value was measured for CCN(C)C(=O)Oc1cccc(CNC(=O)C2(C)CCc3c(C)c(O)c(C)c(C)c3O2)c1 (stereo not shown) ?
Reply: 1.51
